From: PubChem BioAssay (Tox21)

# test.protocol: qHTS assay to identify small molecule agonists of the hypoxia (HIF-1) signaling pathway - cell viability counter screen (AID 1224844); also: % is scaled to controls: 0 for no effect and ±100 for the full control effect; nearly all actives have a fitted effect of over 50% in size
# measurement.conditions: HRE-bla ME-180 viability, CellTiter-Glo luminescence, 17 h; series mostly up to 76.8 µM
Results filed as inconclusive are left out. Activity calls are given as the source filed them. Calls follow the shape of the full dose curve.

molecule: CCCCCCCCC1CO1 (stereo unspecified)
activity change, negative = cytotoxicity: inactive

molecule: OCCC(F)(F)C(F)(F)C(F)(F)C(F)(F)C(F)(F)C(F)(F)F
activity change, negative = cytotoxicity: inactive

molecule: N[C@H]1C(O)O[C@H](CO)[C@@H](O)[C@@H]1O (stereo partly specified)
activity change, negative = cytotoxicity: inactive

molecule: NC[C@H]1O[C@H](O[C@H]2[C@H](O)[C@@H](O[C@H]3O[C@H](CO)[C@@H](O)[C@H](N)[C@H]3O)[C@H](N)C[C@@H]2N)[C@H](N)[C@@H](O)[C@@H]1O
activity change, negative = cytotoxicity: 6.36% [at 15.8 µM] (inactive)

molecule: O=C(O)Cc1ccccc1Oc1ccc(Cl)cc1Cl
activity change, negative = cytotoxicity: inactive

molecule: CC(=O)Nc1ccc(OCCOCCOc2ccc(NC(C)=O)cc2)cc1
activity change, negative = cytotoxicity: inactive

molecule: C/C=C(\C)C=O
activity change, negative = cytotoxicity: inactive

molecule: CCCC[O][Al]([O]CCCC)[O]CCCC
activity change, negative = cytotoxicity: inactive

molecule: C=CCN(CC=C)CC=C
activity change, negative = cytotoxicity: inactive

molecule: CC1=C(O)C(=O)CO1
activity change, negative = cytotoxicity: inactive

molecule: CC(=O)O[C@@H]1CC2C3CCc4cc(OC(=O)c5ccccc5)ccc4C3CCC2(C)[C@H]1OC(C)=O (stereo partly specified)
activity change, negative = cytotoxicity: inactive

###

# system.name: Nuclear receptor subfamily 1 group I member 2 (Homo sapiens)
# test.protocol: Human pregnane X receptor (PXR) small molecule agonists, qHTS assay (AID 1346982); also: nearly all actives have a fitted effect of over 35% in size; as to activation: % is scaled to controls: 0 for no effect and ±100 for the full control effect
# measurement.conditions: PXR-Luc HepG2, CYP3A4 luciferase reporter, 24 h; series mostly up to 92.4 µM
Records with an inconclusive call do not appear. Active and inactive are the calls of the source. The call rests on the fitted dose curve; in most records, active means well fitted activation curve with a large enough effect in the repeat runs; inconclusive means weak or mixed curves; inactive means no such curve, though single readings can be large or run the other way.
Outcomes: active, inactive

compound: O=C(c1ccccc1)c1cccc(O)c1
assigned.label: active
//
compound: CCCCCCCOC(C)=O
assigned.label: inactive
//
compound: CC(=O)Oc1ccc(C(C)=O)cc1
assigned.label: inactive
//
compound: Cc1cc(C)c(C)c(C)c1
assigned.label: inactive
//
compound: CC(C)(C)OC(=O)c1ccccc1C(=O)O
assigned.label: inactive
//
compound: CC(CC(=O)Cl)CC(C)(C)C (stereo unspecified)
assigned.label: inactive
//
compound: CCC(C)(C)C
assigned.label: inactive
//
compound: CCCCCC(CC)OC(=O)CCCOc1ccc(Cl)cc1Cl (stereo unspecified)
assigned.label: inactive
//
compound: Cc1cc(O)c(Cl)cc1C
assigned.label: inactive
//
compound: CC1=C(O)C(=O)CO1
assigned.label: inactive
//
compound: C=CCCCCCCCCOC(C)=O
assigned.label: inactive
//
compound: N=C(N)S(=O)O
assigned.label: inactive
//
compound: C=C(C)C(=O)OCCCC
assigned.label: inactive
//
compound: CC(C)(O)c1ccc(C(C)(C)O)cc1
assigned.label: inactive
//
compound: CCOCCOCCOC(C)=O
assigned.label: inactive
//
compound: COC(C)(C)CC(C)=O
assigned.label: inactive

###

# test.protocol: qHTS assay to identify small molecule antagonists of the androgen receptor (AR) signaling pathway using the MDA cell line - cell viability counter screen (AID 743041; also: % is scaled to controls: 0 for no effect and ±100 for the full control effect; nearly all actives have a fitted effect of over 45% in size)
# measurement.conditions: MDA-kb2 viability, CellTiter-Fluor, 16 h, cells co-treated with R1881 androgen agonist; series mostly up to 70.3 µM
Results filed as inconclusive are left out. Active and inactive are the calls of the source. Calls follow the shape of the dose curve; as a rule, active = well fitted cell-killing curve with a large enough effect in the repeat runs; inconclusive = weak or mixed curves, or effect the other way; inactive = flat fitted curve, though single readings scatter.
readout.type: viability change, negative = cytotoxic

compound.structure: COC(=O)c1ccc(C(=O)O)cc1
data.value: inactive
//
compound.structure: NNC(=O)OCc1ccccc1
data.value: inactive
//
compound.structure: CC(=O)Nc1ccc(S(=O)(=O)Nc2cc(C)on2)cc1
data.value: inactive

###

# test.protocol: qHTS assay to identify small molecule agonists of the AP-1 signaling pathway - cell viability counter screen (AID 1159525); also: nearly all actives have a fitted effect of over 55% in size
# measurement.conditions: ME-180 (cervical carcinoma) AP-1-bla cells viability, ATP luminescence, 5 h; series mostly up to 76.8 µM
Records with an inconclusive call do not appear. Activity calls are given as the source filed them. Calls follow the shape of the full dose curve.

molecule: CC(C)=CCC/C(C)=C\C#N
viability change, negative = cytotoxic: inactive
--
molecule: COc1cc(C(=O)NC2CCCNC2)cc(OC)c1OC (stereo not given)
viability change, negative = cytotoxic: inactive
--
molecule: CCCCCC(=O)CC
viability change, negative = cytotoxic: inactive
--
molecule: CC(O)C(CO)C(C)O (stereo not given)
viability change, negative = cytotoxic: inactive
--
molecule: CC(=O)OCC(=O)[C@@]1(O)CC[C@H]2[C@@H]3CCC4=CC(=O)C=C[C@]4(C)[C@H]3[C@@H](O)C[C@@]21C
viability change, negative = cytotoxic: inactive
--
molecule: C=CC(C)(CCC=C(C)C)OC(=O)C(C)C (stereo not given)
viability change, negative = cytotoxic: inactive
--
molecule: Clc1cc(Cl)c(Cl)c(Cl)c1Cl
viability change, negative = cytotoxic: inactive
--
molecule: Cc1ccc(O)c([N+](=O)[O-])c1
viability change, negative = cytotoxic: inactive
--
molecule: CCN1CCN(C(=O)N[C@@H](C(=O)N[C@@H]2C(=O)N3[C@@H]2SC(C)(C)[C@H]3C(=O)O)c2ccccc2)C(=O)C1=O
viability change, negative = cytotoxic: inactive
--
molecule: CC1=C(O)C(=O)CO1
viability change, negative = cytotoxic: inactive
--
molecule: NNC(=O)CCCCC(=O)NN
viability change, negative = cytotoxic: inactive
--
molecule: CC(=O)Oc1ccc(C(C)=O)cc1
viability change, negative = cytotoxic: inactive
--
molecule: CC[N+](C)(CC)CC
viability change, negative = cytotoxic: inactive
--
molecule: COC(=O)c1ccccc1Cl
viability change, negative = cytotoxic: inactive
--
molecule: NC[C@H]1O[C@H](O[C@H]2[C@H](O)[C@@H](O[C@H]3O[C@H](CO)[C@@H](O)[C@H](N)[C@H]3O)[C@H](N)C[C@@H]2N)[C@H](N)[C@@H](O)[C@@H]1O
viability change, negative = cytotoxic: 1.49% [at 15.8 µM] (inactive)
--
molecule: Cc1ccccc1OCC(=O)O
viability change, negative = cytotoxic: inactive
--
molecule: CC(=O)/C=C/C=C1/C2CCC(C2)C1(C)C (stereo not given)
viability change, negative = cytotoxic: inactive
--
molecule: Cc1ccc(Br)cc1
viability change, negative = cytotoxic: inactive
--
molecule: CN(C)CCC[C@@]1(c2ccc(F)cc2)OCc2cc(C#N)ccc21
viability change, negative = cytotoxic: inactive
--
molecule: CCCCC(CC)COC(=O)CC#N (stereo not given)
viability change, negative = cytotoxic: inactive
--
molecule: CC[C@@]1(c2ccccc2)NC(=O)N(C)C1=O
viability change, negative = cytotoxic: inactive
--
molecule: CC(O)CCCCn1c(=O)c2c(ncn2C)n(C)c1=O (stereo not given)
viability change, negative = cytotoxic: inactive
--
molecule: CCOC(=O)c1ccc(N(C)C)cc1
viability change, negative = cytotoxic: inactive
--
molecule: COc1cc(NS(=O)(=O)c2ccc(N)cc2)ncn1
viability change, negative = cytotoxic: inactive
--
molecule: Cc1ccc(S(=O)(=O)NC(=O)NN2CC3CCCC3C2)cc1 (stereo not given)
viability change, negative = cytotoxic: inactive
--
molecule: COC(=O)/C=C(\C)CCC=C(C)C
viability change, negative = cytotoxic: inactive
--
molecule: Cc1ccc(NC(N)=O)cc1
viability change, negative = cytotoxic: inactive
--
molecule: CN(C)CCc1c[nH]c2ccc(C[C@H]3COC(=O)N3)cc12
viability change, negative = cytotoxic: inactive
--
molecule: N[C@H]1C(O)O[C@H](CO)[C@@H](O)[C@@H]1O (stereo not given in full)
viability change, negative = cytotoxic: inactive
--
molecule: CNCCc1ccccn1
viability change, negative = cytotoxic: inactive
--
molecule: CC(=O)c1c(C)cc(C(C)(C)C)cc1C
viability change, negative = cytotoxic: inactive
--
molecule: C[C@@H]1NC(=O)[C@@H](N)CNC(=O)[C@H](C2CCNC(N)=N2)NC(=O)/C(=C/NC(N)=O)NC(=O)[C@H](CNC(=O)C[C@@H](N)CCCN)NC1=O (stereo not given in full)
viability change, negative = cytotoxic: 0.985% [at 0.29 µM] (inactive)
--
molecule: Cc1nc2ccc(Cl)cc2[nH]1
viability change, negative = cytotoxic: inactive
--
molecule: CCCCCCCCCCCCCCBr
viability change, negative = cytotoxic: inactive
--
molecule: CC(=O)O[C@@H]1CC2C3CCc4cc(OC(=O)c5ccccc5)ccc4C3CCC2(C)[C@H]1OC(C)=O (stereo not given in full)
viability change, negative = cytotoxic: inactive
--
molecule: CCCCCCC(=O)c1ccccc1
viability change, negative = cytotoxic: inactive
--
molecule: O=c1c(O)c(O)c1=O
viability change, negative = cytotoxic: inactive
--
molecule: C/C=C(\C)C(=O)OC/C=C(\C)CCC=C(C)C
viability change, negative = cytotoxic: inactive
--
molecule: COc1cnc(NS(=O)(=O)c2ccc(N)cc2)nc1
viability change, negative = cytotoxic: inactive
--
molecule: CCCCNCC
viability change, negative = cytotoxic: inactive
--
molecule: CC(C)CC(O)Cc1ccccc1 (stereo not given)
viability change, negative = cytotoxic: inactive
--
molecule: C=CCCCCCCCCOC(C)=O
viability change, negative = cytotoxic: inactive
--
molecule: COc1ccc2cc(CCC(C)=O)ccc2c1
viability change, negative = cytotoxic: inactive
--
molecule: N=C(N)N
viability change, negative = cytotoxic: inactive
--
molecule: CCCCCCCCC1CO1 (stereo not given)
viability change, negative = cytotoxic: inactive
--
molecule: Cc1cccc(N)n1
viability change, negative = cytotoxic: inactive
--
molecule: O=C1CCCc2c(O)cccc21
viability change, negative = cytotoxic: inactive
--
molecule: O=c1[nH]c(=O)c2cn[nH]c2[nH]1
viability change, negative = cytotoxic: inactive
--
molecule: O=C(O)CCCCCCCCCC(=O)O
viability change, negative = cytotoxic: inactive
--
molecule: CCCCCCCCCCCCCC(=O)OCC
viability change, negative = cytotoxic: inactive
--
molecule: Cc1ccc(O)c(C(=O)c2ccccc2)c1
viability change, negative = cytotoxic: inactive
--
molecule: CCCOc1ccc(C(=O)OCCN(CC)CC)cc1N
viability change, negative = cytotoxic: inactive
--
molecule: COC(=O)N/N=C/c1c[n+]([O-])c2ccccc2[n+]1[O-]
viability change, negative = cytotoxic: inactive
--
molecule: O=Cc1ccc(C(=O)O)cc1
viability change, negative = cytotoxic: inactive
--
molecule: CC(=O)SCC(CC(=O)c1ccc(C)cc1)C(=O)O (stereo not given)
viability change, negative = cytotoxic: inactive
